Provenance of the data: patent US20260232732A1

Measured OD450 accompanies every entry in the list below.
- TESTED ON: T1, biotin-peptide KNNVRQFAS (human)
- T1 peptide: Biotin-KNNVRQFAS
- ASSAY COMMENT: ELISA biotin-peptide; scFv 10 ug/mL; repII
Where no end group is shown, it is not given here. The star is where a group is joined. Biotin = O=C1N[C@H]2[C@H](CS[C@H]2CCCCC(=O)*)N1
MEASUREMENT TYPE: OD450 (OD)

INSERT INTO results (binder, measurement_units, reading) VALUES
  ('CCR9_HUM2 scFv (humanized anti-CCR9 scFv, SEQ ID NO: 17 with C-terminal 6xHis tag) (scFv) scFv: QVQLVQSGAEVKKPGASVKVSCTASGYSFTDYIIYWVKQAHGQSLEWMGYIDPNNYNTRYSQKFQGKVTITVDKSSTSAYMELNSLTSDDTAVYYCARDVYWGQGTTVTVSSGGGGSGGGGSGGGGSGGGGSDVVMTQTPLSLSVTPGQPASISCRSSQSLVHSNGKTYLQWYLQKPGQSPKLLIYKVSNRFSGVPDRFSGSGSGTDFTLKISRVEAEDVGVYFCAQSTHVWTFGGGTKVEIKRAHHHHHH', 'OD', 0.09),
  ('Comparative antibody 3 (Comp-3) scFv, SR_92R (Somovilla-Crespo et al. 2018), His-tagged (scFv) scFv: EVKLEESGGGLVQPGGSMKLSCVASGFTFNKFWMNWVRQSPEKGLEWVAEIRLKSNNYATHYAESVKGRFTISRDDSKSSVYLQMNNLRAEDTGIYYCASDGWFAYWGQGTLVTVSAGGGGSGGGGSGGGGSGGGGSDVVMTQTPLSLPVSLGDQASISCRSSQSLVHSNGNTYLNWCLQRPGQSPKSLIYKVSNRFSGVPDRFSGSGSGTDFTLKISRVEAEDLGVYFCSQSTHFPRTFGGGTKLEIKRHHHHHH', 'OD', 0.08),
  ('Comparative antibody 1 (Comp-1) scFv, SEQ ID NO: 10 from WO2023/037125 A1, His-tagged (scFv) scFv: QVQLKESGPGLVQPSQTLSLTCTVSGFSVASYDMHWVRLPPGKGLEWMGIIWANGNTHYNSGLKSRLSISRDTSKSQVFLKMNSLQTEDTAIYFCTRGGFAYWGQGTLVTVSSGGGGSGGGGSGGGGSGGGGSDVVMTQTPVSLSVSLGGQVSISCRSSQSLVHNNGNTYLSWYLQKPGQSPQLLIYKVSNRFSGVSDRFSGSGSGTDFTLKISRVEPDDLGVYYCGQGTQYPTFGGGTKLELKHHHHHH', 'OD', 0.06),
  ('Comparative antibody 2 (Comp-2) scFv, 243LO326 (VH SEQ ID NO: 51 and VL SEQ ID NO: 52 of WO 2022/195028 A2), His-tagged (scFv) scFv: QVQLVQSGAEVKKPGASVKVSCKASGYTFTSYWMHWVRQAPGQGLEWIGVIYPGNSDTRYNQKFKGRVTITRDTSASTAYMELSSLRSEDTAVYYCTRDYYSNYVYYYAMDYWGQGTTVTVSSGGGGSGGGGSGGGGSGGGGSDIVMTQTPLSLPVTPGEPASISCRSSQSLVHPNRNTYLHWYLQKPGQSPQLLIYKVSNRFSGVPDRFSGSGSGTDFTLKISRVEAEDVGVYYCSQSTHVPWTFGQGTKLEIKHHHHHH', 'OD', 0.07);
